Data origin, for the record: patent US20100234390A1

Measured Antimicrobial Screening (MIC), listed per entry for reference.
Test system: M. catarrhalis ATCC 43617
Assay: Agar dilution MIC
Format: cell-based, Moraxella catarrhalis
Details: 35° C., 16-20 hours
Description: Briefly, the compounds of invention were weighed, dissolved in dimethyl sulfoxide, serially two fold diluted in the same solvent and then incorporated into molten Mueller Hinton Agar (MHA) in a petridish just before solidification, with each petridish containing a different concentration of a compound. […]
Your answer is read as µg/mL, so omit the unit and give the number.

Worked cases, answers included:
COC(=S)NC[C@H]1CN(c2ccc(N3CCN(C(=O)c4ccc([N+](=O)[O-])o4)CC3)c(F)c2)C(=O)O1: 0.25
COC(=S)NC[C@H]1CN(c2ccc(N3CCN(C(=O)c4cccnc4)CC3)c(F)c2)C(=O)O1: 1
COC(=S)NC[C@H]1CN(c2ccc(N3CCN(C(=O)CNS(C)(=O)=O)CC3)c(F)c2)C(=O)O1: 1

Task item: # query: Antimicrobial Screening (MIC) of entry COC(=S)NC[C@H]1CN(c2ccc(N3CCN(C(=S)n4ccnc4)CC3)c(F)c2)C(=O)O1
Reply: 1

Task item: Continue with COC(=S)NC[C@H]1CN(c2ccc(N3CCN(C(=O)c4ccno4)CC3)c(F)c2)C(=O)O1
Reply: 1

Task item: Continue with COC(=S)NC[C@H]1CN(c2ccc(N3CCN(C(=O)c4ccc(N)nc4)CC3)c(F)c2)C(=O)O1
Reply: 1

Task item: Continue with COC(=S)NC[C@H]1CN(c2ccc(N3CCN(C(=O)C=Cc4ccc([N+](=O)[O-])o4)CC3)c(F)c2)C(=O)O1
Reply: 0.06

----------
Measured Antimicrobial Screening (MIC), listed per entry for reference.
test system: E. faecium MRO 04198; test: Agar dilution MIC; type: cell-based, Enterococcus faecium; settings: 35° C., 16-20 hours
Your answer is read as µg/mL, so omit the unit and give the number.

Worked cases, answers included:
COC(=S)NC[C@H]1CN(c2ccc(N3CCN(C(=O)c4ccno4)CC3)c(F)c2)C(=O)O1: 0.25
COC(=S)NC[C@H]1CN(c2ccc(N3CCN(C(=O)CNS(C)(=O)=O)CC3)c(F)c2)C(=O)O1: 0.5
COC(=S)NC[C@H]1CN(c2ccc(N3CCN(C(=O)c4ccc(N)nc4)CC3)c(F)c2)C(=O)O1: 0.25
COC(=S)NC[C@H]1CN(c2ccc(N3CCN(C(=O)c4cccnc4)CC3)c(F)c2)C(=O)O1: 0.5
COC(=S)NC[C@H]1CN(c2ccc(N3CCN(C(=S)n4ccnc4)CC3)c(F)c2)C(=O)O1: 0.25

Task item: Hello, I am looking for reported Antimicrobial Screening (MIC) with E. faecium MRO 04198 for COC(=S)NC[C@H]1CN(c2ccc(N3CCN(C(=O)C=Cc4ccc([N+](=O)[O-])o4)CC3)c(F)c2)C(=O)O1 . Could you help?
Reply: 0.25

Task item: Continue with COC(=S)NC[C@H]1CN(c2ccc(N3CCN(C(=O)c4ccc([N+](=O)[O-])o4)CC3)c(F)c2)C(=O)O1
Reply: 0.25

----------
test system: M. catarrhalis ATCC 43628; experiment: Agar dilution MIC; format: cell-based, Moraxella catarrhalis; details: 35° C., 16-20 hours
Field 'label' (enum: yes (1) / no (0)). Set to yes (1) when Antimicrobial Screening (MIC) is strictly under 1 µg/mL; else no (0).

Reference set, count: 3
COC(=S)NC[C@H]1CN(c2ccc(N3CCN(C(=O)C=Cc4ccc([N+](=O)[O-])o4)CC3)c(F)c2)C(=O)O1 [Example 40]: yes (1)
COC(=S)NC[C@H]1CN(c2ccc(N3CCN(C(=O)c4cccnc4)CC3)c(F)c2)C(=O)O1 [Example 2]: no (0)
COC(=S)NC[C@H]1CN(c2ccc(N3CCN(C(=O)c4ccc([N+](=O)[O-])o4)CC3)c(F)c2)C(=O)O1 [Example 7]: yes (1)

Then this compound:
Task item: # TODO verify Antimicrobial Screening (MIC) < 1 µg/mL strictly for this compound: COC(=S)NC[C@H]1CN(c2ccc(N3CCN(C(=O)CNS(C)(=O)=O)CC3)c(F)c2)C(=O)O1 [Example 43]
Reply: no (0)
